- test_system: T1, human TF ECD-His6 (human, UniProt P13726 33-251)
- T1 construct: Expi293-derived; Biacore used TF-His; also called TF-His; hTF
- assay_summary: BLI (ForteBio Octet)
quantity_measured: pKd
In textbook form, pKd equals minus log to base ten of the concentration in mol/L.

Some solved entries appear below for comparison.
43B7 (antibody, human IgG1, V domains shown, Human IgG1; also called antibody designated 43B7) VH: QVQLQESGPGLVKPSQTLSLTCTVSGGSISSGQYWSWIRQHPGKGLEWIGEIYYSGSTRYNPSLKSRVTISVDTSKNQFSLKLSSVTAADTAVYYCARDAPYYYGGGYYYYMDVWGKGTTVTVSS VL: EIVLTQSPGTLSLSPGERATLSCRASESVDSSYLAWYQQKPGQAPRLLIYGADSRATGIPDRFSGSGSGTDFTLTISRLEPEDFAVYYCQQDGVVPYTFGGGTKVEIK    9.07
25A3 (antibody, human IgG1, V domains shown, Human IgG1; also called antibody designated 25A3) VH: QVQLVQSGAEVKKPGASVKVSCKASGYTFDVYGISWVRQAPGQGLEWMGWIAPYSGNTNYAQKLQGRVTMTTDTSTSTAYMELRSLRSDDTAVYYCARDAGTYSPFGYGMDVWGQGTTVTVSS VL: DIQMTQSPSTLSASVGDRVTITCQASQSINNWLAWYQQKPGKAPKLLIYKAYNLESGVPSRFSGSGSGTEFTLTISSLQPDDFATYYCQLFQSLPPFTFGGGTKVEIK    8.78

Let us move to another entry and its pKd.
GET /value?item= 25G1 (antibody, human IgG1, V domains shown, Human IgG1; also called antibody designated 25G1) VH: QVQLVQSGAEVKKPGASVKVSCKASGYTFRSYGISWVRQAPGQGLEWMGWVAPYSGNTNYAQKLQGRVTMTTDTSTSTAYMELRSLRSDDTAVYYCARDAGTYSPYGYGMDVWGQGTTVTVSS VL: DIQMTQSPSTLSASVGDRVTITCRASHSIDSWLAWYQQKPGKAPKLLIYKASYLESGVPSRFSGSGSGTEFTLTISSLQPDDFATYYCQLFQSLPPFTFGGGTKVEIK &field=pKd returns 8.40

Origin of measurements: patent US20250361322A1
